experimental-system: hCA IX (Homo sapiens, UniProt Q16790)
Construct: made in house
assay-notes: stopped-flow CO2 hydrase assay, hCA IX
Type: biochemical
condition-summary: selectivity for inhibiting hCA IX over hCA II (values equal Ki hCA II / Ki hCA IX)
quantity-measured: SR IX/II (Selectivity Ratio)

Use the examples below as a reference point.
{"line-notation": "NS(=O)(=O)c1ccc2nc(CCc3ccc(O)cc3)[nH]c2c1", "SR IX/II (Selectivity Ratio)": 3.3}
{"line-notation": "NS(=O)(=O)c1ccc2nc(Cc3ccc(O)cc3)[nH]c2c1", "SR IX/II (Selectivity Ratio)": 1.2}
{"line-notation": "COC(=O)c1ccc(-c2nc3ccc(S(N)(=O)=O)cc3[nH]2)cc1", "SR IX/II (Selectivity Ratio)": 6.3}

A = NS(=O)(=O)c1ccc2nc(CCc3ccc(O)c(C(=O)O)c3)[nH]c2c1
B = NS(=O)(=O)c1ccc2nc(-c3ccccc3)[nH]c2c1
Req: Which one would you say has the larger SR IX/II (Selectivity Ratio) value: A , or B ? Give the label of your selection.
Resp: A

P = NS(=O)(=O)c1ccc2nc(-c3ccc(O)c(O)c3)[nH]c2c1
Q = COC(=O)c1cc(CCc2nc3ccc(S(N)(=O)=O)cc3[nH]2)ccc1O
R = NS(=O)(=O)c1ccc2nc(-c3ccc(O)cc3)[nH]c2c1
S = COC(=O)c1cc(-c2nc3ccc(S(N)(=O)=O)cc3[nH]2)ccc1O
Req: Arrange by SR IX/II (Selectivity Ratio), high to low. Please write the labels in the order that was asked for.
Resp: S, Q, R, P
